Test system: CD34+ hair follicle stem cells
Assay: In vitro hair growth assay / BrdU proliferation assay with CD34+ hair follicle stem cells
Type: cell-based, mouse
Conditions: each peptide 100 nM, 24 hours
reported-property: inducing proliferation of CD34+ hair follicle stem cells (relative cell number)

Please review the entries below; each comes with its answer.
• AVLKRLEQKGAEADQIIEYL (Homo sapiens N1 polypeptide; Neo-Pep-(1-20)) [Polypeptide N1, fragment of Neo-Pep consisting of 20 consecutive amino acids without KEKA] = didn't show any effect
• KGAEADQIIEYLKQQVSLLK (Homo sapiens N3 polypeptide; Neo-Pep-(9-28)) [Polypeptide N3, fragment of Neo-Pep consisting of 20 consecutive amino acids without KEKA] = didn't show any effect
• KQQVSLLKEKAILQATLREE (Homo sapiens N7 polypeptide; Neo-Pep-(21-40)) [Polypeptide N7, fragment of Neo-Pep comprising KEKA] = induced proliferation
• QVSLLKEKAILQATLREEK (Homo sapiens N8 polypeptide; Neo-Pep-(23-41)) [Polypeptide N8, fragment of Neo-Pep comprising KEKA] = induced proliferation
• LKRLEQKGAEADQIIEYLKQ (Homo sapiens N2 polypeptide; Neo-Pep-(3-22)) [Polypeptide N2, fragment of Neo-Pep consisting of 20 consecutive amino acids without KEKA] = didn't show any effect

Now consider the entry below.
Q) # query: inducing proliferation of CD34+ hair follicle stem cells (relative cell number) of entry AEADQIIEYLKQQVSLLKEK (Homo sapiens N4 polypeptide; Neo-Pep-(11-30)) [Polypeptide N4, fragment of Neo-Pep consisting of 20 consecutive amino acids without KEKA]
A) didn't show any effect

----------
Tested on: CD34+ hair follicle stem cells
Assay: In vitro hair growth assay / BrdU proliferation assay with CD34+ hair follicle stem cells
Type: cell-based, mouse
Conditions: each peptide 100 nM, 24 hours
Protocol: The hair of the dorsal skin of 7 weeks old male C57BL6 mice (purchased from Orient Bio Inc.) were cut with a clipper and skin tissue samples of the depilated dorsal region of the mice were collected. The collected skin tissue samples were immersed in medium using collagenase, DNase I, and hyaluronidase, and cells were isolated using Gentle MACSTM Dissociator (Miltenyi Biotec). After the cells were separated, the separated cells were incubated with a mouse CD34-Biotin antibody (Miltenyi Biotec). […]
reported-property: inducing proliferation of CD34+ hair follicle stem cells (relative cell number)

- IEYLKQQVSLLKEKAILQAT (Homo sapiens N5 polypeptide; Neo-Pep-(17-36)) [Polypeptide N5, fragment of Neo-Pep comprising KEKA]: induced proliferation
- AVLKRLEQKGAEADQIIEYLKQQVSLLKEKAILQATLREEK (Homo sapiens Neo-Pep polypeptide; AIMP1-(6-46)): induced proliferation
- YLKQQVSLLKEKAILQATLR (Homo sapiens N6 polypeptide; Neo-Pep-(19-38)) [Polypeptide N6, fragment of Neo-Pep comprising KEKA]: induced proliferation
